- subject.of.test: P2X3 (Homo sapiens (Human), UniProt P56373)
- Sequence (P56373 whole entry): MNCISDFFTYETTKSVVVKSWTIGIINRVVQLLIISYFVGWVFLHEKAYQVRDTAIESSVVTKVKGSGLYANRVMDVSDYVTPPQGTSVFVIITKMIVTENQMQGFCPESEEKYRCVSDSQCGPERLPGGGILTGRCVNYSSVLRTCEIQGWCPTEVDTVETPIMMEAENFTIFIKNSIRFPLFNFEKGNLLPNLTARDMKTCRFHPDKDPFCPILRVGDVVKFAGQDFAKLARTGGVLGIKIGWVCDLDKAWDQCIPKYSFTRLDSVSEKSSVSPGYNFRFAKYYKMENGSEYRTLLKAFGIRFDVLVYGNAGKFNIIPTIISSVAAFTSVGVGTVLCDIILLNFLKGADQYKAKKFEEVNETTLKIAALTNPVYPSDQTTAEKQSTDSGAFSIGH
- assay.details: Calcium uptake assay (P2X antagonist assay), P2X3
- experimental.conditions: inhibition of agonist-induced calcium influx
readout.label: pIC50
A value of pIC50 is the negative decimal logarithm of a concentration given in moles per litre.

*Q* Name the recorded pIC50 of the item Cc1ccc(N2CCc3ncnc(N[C@H](C)c4ccc(F)cc4)c3C2)nc1 [Compound 49] in your answer.
*A* 7.72

*Q* Name the recorded pIC50 of the item Cc1ccc(N2CCc3ncnc(NC(CCO)c4ccccc4)c3C2)nc1 (centres unmarked) [Compound 32] in your answer.
*A* 6.84

*Q* Name the recorded pIC50 of the item COc1ccc([C@@H](CO)Nc2ncnc3c2CN(c2ccc(Cl)cn2)CC3)cn1 [Compound 59] in your answer.
*A* 7.05

*Q* Name the recorded pIC50 of the item Cc1ccc(N2CCc3ncnc(NC(C)c4ccc(F)cc4F)c3C2)nc1 (centres unmarked) [Compound 18] in your answer.
*A* 7.30

*Q* Name the recorded pIC50 of the item CC[C@@H](Nc1ncnc2c1CN(c1ccc(C)cn1)CC2)c1ccccc1 [Compound 42] in your answer.
*A* 6.39

###

Assignment: determine reported pIC50 for the given compounds.
- subject.of.test: P2X2/3 (Homo sapiens (Human), UniProt P56373+Q9UBL9)
- Sequence (Q9UBL9 whole entry, one chain of several): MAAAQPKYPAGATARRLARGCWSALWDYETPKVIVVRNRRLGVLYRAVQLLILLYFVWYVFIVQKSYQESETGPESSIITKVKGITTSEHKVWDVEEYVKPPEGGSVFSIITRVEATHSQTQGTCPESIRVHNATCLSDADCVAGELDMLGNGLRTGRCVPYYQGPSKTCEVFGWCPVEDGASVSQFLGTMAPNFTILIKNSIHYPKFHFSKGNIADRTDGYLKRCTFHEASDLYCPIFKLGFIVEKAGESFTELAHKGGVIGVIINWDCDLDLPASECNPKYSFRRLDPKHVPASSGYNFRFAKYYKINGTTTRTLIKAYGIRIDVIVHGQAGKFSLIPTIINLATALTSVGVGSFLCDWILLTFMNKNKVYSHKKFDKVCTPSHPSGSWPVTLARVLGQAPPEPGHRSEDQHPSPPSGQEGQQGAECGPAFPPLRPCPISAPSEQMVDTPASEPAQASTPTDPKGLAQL
- assay.details: Calcium uptake assay (P2X antagonist assay), P2X2/3
- experimental.conditions: inhibition of agonist-induced calcium influx
A value of pIC50 is the negative decimal logarithm of a concentration given in moles per litre.

*Q* State pIC50 (P2X2/3 (Homo sapiens (Human), UniProt P56373+Q9UBL9)) of Cc1ccc(N2CCc3ncnc(NC(C)c4cccc(F)c4)c3C2)nc1 (stereo not shown) .
*A* 5.61

*Q* State pIC50 (P2X2/3 (Homo sapiens (Human), UniProt P56373+Q9UBL9)) of COc1ccc([C@@H](CCO)Nc2ncnc3c2CN(c2ccc(Cl)cn2)CC3)cn1 .
*A* 6.50

*Q* State pIC50 (P2X2/3 (Homo sapiens (Human), UniProt P56373+Q9UBL9)) of Cc1ccc(N2CCc3ncnc(NC(C)c4ccc(F)cc4F)c3C2)nc1 (stereo not shown) .
*A* 5.51

*Q* State pIC50 (P2X2/3 (Homo sapiens (Human), UniProt P56373+Q9UBL9)) of Cc1ccc(N2CCc3ncnc(NC(CO)c4cccnc4)c3C2)nc1 (stereo not shown) .
*A* 5.51

*Q* State pIC50 (P2X2/3 (Homo sapiens (Human), UniProt P56373+Q9UBL9)) of Cc1ccc(N2CCc3ncnc(NC(CCO)c4ccccc4)c3C2)nc1 (stereo not shown) .
*A* 5.41

*Q* State pIC50 (P2X2/3 (Homo sapiens (Human), UniProt P56373+Q9UBL9)) of Cc1ccc(N2CCc3ncnc(NC(C)c4ccccc4F)c3C2)nc1 (stereo not shown) .
*A* 5.34

*Q* State pIC50 (P2X2/3 (Homo sapiens (Human), UniProt P56373+Q9UBL9)) of Cc1ccc(N2CCc3ncnc(N[C@H](C)c4ccccc4)c3C2)nc1 .
*A* 5.60

*Q* State pIC50 (P2X2/3 (Homo sapiens (Human), UniProt P56373+Q9UBL9)) of Cc1ccc(N2CCc3ncnc(N[C@H](C)c4cnc(C)nc4)c3C2)nc1 .
*A* 6.59

*Q* State pIC50 (P2X2/3 (Homo sapiens (Human), UniProt P56373+Q9UBL9)) of Cc1ccc(N2CCc3ncnc(NC(C)c4ccc(Cl)c(F)c4)c3C2)nc1 (stereo not shown) .
*A* 5.85

*Q* State pIC50 (P2X2/3 (Homo sapiens (Human), UniProt P56373+Q9UBL9)) of COc1ccc(C(C)Nc2ncnc3c2CN(c2ccc(C)cn2)CC3)cc1F (stereo not shown) .
*A* 5.98

###

- subject.of.test: UniProt P56373
- assay.details: Calcium uptake assay (P2X antagonist assay), P2X3
- Type: cell-based
- experimental.conditions: inhibition of agonist-induced calcium influx
- Experimental: Human P2X3 (Accession no. NM_002559), P2X2 (Accession no. NM_170682) and Rat P2X3 (Accession no. NM_031075) and P2X2 (Accession no. NM_053656) are cloned into a mammalian expression vector (e.g., pcDNA5/TO or pcDNA3 Invitrogen). […] Functional activity of compounds at the P2X receptor is determined by measuring their ability to inhibit agonist-induced calcium influx. […] At the start of each screening day, the agonist EC50 is determined. […]
readout.label: pIC50
A value of pIC50 is the negative decimal logarithm of a concentration given in moles per litre.

*Q* State pIC50 (UniProt P56373) of Cc1ccc(N2CCc3ncnc(NC(C)c4ccccn4)c3C2)nc1 (centres unmarked) .
*A* 6.91

*Q* State pIC50 (UniProt P56373) of Cc1ccc(N2CCc3ncnc(N[C@H](CO)c4ccc(C(F)(F)F)cc4)c3C2)nc1 .
*A* 6.80

*Q* State pIC50 (UniProt P56373) of Cc1ccc(N2CCc3ncnc(N[C@H](CO)c4ccccc4)c3C2)nc1 .
*A* 6.79

*Q* State pIC50 (UniProt P56373) of Cc1ccc(N2CCc3ncnc(NC(C)c4ccc(Br)cc4)c3C2)nc1 (centres unmarked) .
*A* 6.67

*Q* State pIC50 (UniProt P56373) of C[C@@H](Nc1ncnc2c1CN(c1ccc(Cl)cn1)CC2)c1ccc(C(F)(F)F)nc1 .
*A* 7.48

*Q* State pIC50 (UniProt P56373) of Cc1ccc(N2CCc3ncnc(N[C@H](C)c4ccc(C(F)(F)F)nc4)c3C2)nc1 .
*A* 7.82

*Q* State pIC50 (UniProt P56373) of Cc1ccc(N2CCc3ncnc(N[C@H](C)c4cnc(C)nc4)c3C2)nc1 .
*A* 7.77

*Q* State pIC50 (UniProt P56373) of Cc1ccc(N2CCc3ncnc(NC(C)c4cccnc4)c3C2)nc1 (centres unmarked) .
*A* 7.20

*Q* State pIC50 (UniProt P56373) of Cc1ccc(N2CCc3ncnc(N[C@H](C)c4ccccc4)c3C2)nc1 .
*A* 7.14

*Q* State pIC50 (UniProt P56373) of C[C@@H](Nc1ncnc2c1CN(c1ccc(Cl)cn1)CC2)c1ccc(Cl)cc1 .
*A* 6.46

*Q* State pIC50 (UniProt P56373) of Cc1ccc(N2CCc3ncnc(N[C@H](CCO)c4ccc(C)nc4)c3C2)nc1 .
*A* 7.55

*Q* State pIC50 (UniProt P56373) of Cc1ccc(N2CCc3ncnc(NC(C)c4cccc(Cl)c4)c3C2)nc1 (centres unmarked) .
*A* 6.92

*Q* State pIC50 (UniProt P56373) of Cc1ccc(N2CCc3ncnc(NC(C)c4ccc(Cl)cc4Cl)c3C2)nc1 (centres unmarked) .
*A* 6.38

*Q* State pIC50 (UniProt P56373) of Cc1ccc(N2CCc3ncnc(NC(C)c4ccc(C(F)(F)F)cc4)c3C2)nc1 (centres unmarked) .
*A* 6.61

*Q* State pIC50 (UniProt P56373) of COc1ccccc1C(C)Nc1ncnc2c1CN(c1ccc(C)cn1)CC2 (centres unmarked) .
*A* 6.86

*Q* State pIC50 (UniProt P56373) of Cc1ccc(N2CCc3ncnc(NC(C)c4ccc(S(C)(=O)=O)cc4)c3C2)nc1 (centres unmarked) .
*A* 6.89

*Q* State pIC50 (UniProt P56373) of Cc1ccc([C@@H](C)Nc2ncnc3c2CN(c2ccc(C)cn2)CC3)cc1 .
*A* 7.33

*Q* State pIC50 (UniProt P56373) of Cc1ccc(N2CCc3ncnc(NC(C)c4cccc(C(F)(F)F)c4)c3C2)nc1 (centres unmarked) .
*A* 6.52

*Q* State pIC50 (UniProt P56373) of CCC(Nc1ncnc2c1CN(c1ccc(C)cn1)CC2)c1ccccc1 (centres unmarked) .
*A* 6.40

*Q* State pIC50 (UniProt P56373) of Cc1ccc(N2CCc3ncnc(N[C@H](C)c4ccc(Cl)cc4)c3C2)nc1 .
*A* 7.32

*Q* State pIC50 (UniProt P56373) of COc1ccc([C@@H](CCO)Nc2ncnc3c2CN(c2ccc(C)cn2)CC3)cn1 .
*A* 7.54

*Q* State pIC50 (UniProt P56373) of Cc1ccc(N2CCc3ncnc(NC(C)c4cc(F)cc(F)c4)c3C2)nc1 (centres unmarked) .
*A* 7.28

*Q* State pIC50 (UniProt P56373) of COc1ccc([C@@H](CO)Nc2ncnc3c2CN(c2ccc(C)cn2)CC3)cn1 .
*A* 7.57

*Q* State pIC50 (UniProt P56373) of Cc1ccc(N2CCc3ncnc(NC(C)c4ccc(Cl)c(F)c4)c3C2)nc1 (centres unmarked) .
*A* 7.37

*Q* State pIC50 (UniProt P56373) of Cc1ccc(N2CCc3ncnc(NC(CO)c4cccnc4)c3C2)nc1 (centres unmarked) .
*A* 6.57

*Q* State pIC50 (UniProt P56373) of COc1cccc([C@@H](C)Nc2ncnc3c2CN(c2ccc(C)cn2)CC3)c1 .
*A* 7.68

*Q* State pIC50 (UniProt P56373) of Cc1ccc(N2CCc3ncnc(NC(C)c4ccccc4Cl)c3C2)nc1 (centres unmarked) .
*A* 6.90

*Q* State pIC50 (UniProt P56373) of Cc1ccc(N2CCc3ncnc(N[C@H](CCO)c4ccc(C(F)(F)F)nc4)c3C2)nc1 .
*A* 7.62

*Q* State pIC50 (UniProt P56373) of COc1ccc([C@@H](C)Nc2ncnc3c2CN(c2ccc(C)cn2)CC3)cc1 .
*A* 6.74

*Q* State pIC50 (UniProt P56373) of Cc1ccc(N2CCc3ncnc(NC(C)c4cccc(F)c4)c3C2)nc1 (centres unmarked) .
*A* 7.25

*Q* State pIC50 (UniProt P56373) of Cc1ccc(N2CCc3ncnc(NC(C)c4ccncc4)c3C2)nc1 (centres unmarked) .
*A* 6.67

*Q* State pIC50 (UniProt P56373) of FC(F)(F)c1ccc([C@H](Nc2ncnc3c2CN(c2ccc(Cl)cn2)CC3)C2CC2)cn1 .
*A* 5.45
